Target: Inhibitor of nuclear factor kappa-B kinase subunit epsilon (Homo sapiens); further: in the data inactive means no Kd found up to 30 µM
Sequence (Q14164 whole entry): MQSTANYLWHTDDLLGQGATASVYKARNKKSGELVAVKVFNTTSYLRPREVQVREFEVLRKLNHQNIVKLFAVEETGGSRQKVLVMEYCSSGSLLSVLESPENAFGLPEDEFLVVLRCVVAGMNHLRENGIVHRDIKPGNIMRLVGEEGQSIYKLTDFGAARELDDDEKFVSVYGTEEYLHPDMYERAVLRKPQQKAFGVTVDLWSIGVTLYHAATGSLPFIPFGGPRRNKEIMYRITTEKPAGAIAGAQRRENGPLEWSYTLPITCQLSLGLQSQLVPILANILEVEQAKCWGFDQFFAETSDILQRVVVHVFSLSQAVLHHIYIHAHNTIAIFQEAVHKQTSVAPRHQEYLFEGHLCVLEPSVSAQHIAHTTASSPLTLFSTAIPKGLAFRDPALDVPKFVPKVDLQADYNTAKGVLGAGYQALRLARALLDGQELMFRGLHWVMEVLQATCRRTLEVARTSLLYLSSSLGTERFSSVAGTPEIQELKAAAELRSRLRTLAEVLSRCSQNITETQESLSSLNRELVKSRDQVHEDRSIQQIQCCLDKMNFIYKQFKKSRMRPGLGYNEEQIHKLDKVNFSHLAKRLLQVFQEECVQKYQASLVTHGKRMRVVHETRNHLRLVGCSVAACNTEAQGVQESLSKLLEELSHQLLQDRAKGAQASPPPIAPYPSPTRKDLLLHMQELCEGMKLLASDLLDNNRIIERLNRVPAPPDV
The source made the active and inactive calls.
Write down one outcome, taken from active, inactive

Reference set, count: 5
# Structure as smiles, Assayed system, Class label
records = [
    ("COC(=O)N[C@@H](C)CNc1nccc(-c2cn(C(C)C)nc2-c2cc(Cl)cc(NS(C)(=O)=O)c2F)n1", "Inhibitor of nuclear factor kappa-B kinase subunit epsilon (Homo sapiens)", "inactive"),
    ("C[C@@H]1CN(Cc2ccc(F)cc2)[C@@H](C)CN1C(=O)c1cc2c(C(=O)C(=O)N(C)C)cn(C)c2cc1Cl", "Inhibitor of nuclear factor kappa-B kinase subunit epsilon (Homo sapiens)", "inactive"),
    ("C1=C/COCc2cc(ccc2OCCN2CCCC2)Nc2nccc(n2)-c2cccc(c2)COC/1", "Inhibitor of nuclear factor kappa-B kinase subunit epsilon (Homo sapiens)", "active"),
    ("C=CC(=O)N1CCC(Oc2cc3c(Nc4ccc(Cl)c(Cl)c4F)ncnc3cc2OC)CC1", "Inhibitor of nuclear factor kappa-B kinase subunit epsilon (Homo sapiens)", "inactive"),
    ("CNC(=O)CN1CCC(Oc2cc3c(Nc4cccc(Cl)c4F)ncnc3cc2OC)CC1", "Inhibitor of nuclear factor kappa-B kinase subunit epsilon (Homo sapiens)", "inactive"),
]

In: Could you check what this test reported for `COCCNCc1ccc(-c2cc3nccc(Oc4ccc(NC(=S)NC(=O)Cc5ccc(F)cc5)cc4F)c3s2)nc1` ?
Out: inactive

In: Could you check what this test reported for `CNC(=O)c1cc(Oc2ccc(NC(=O)Nc3ccc(Cl)c(C(F)(F)F)c3)c(F)c2)ccn1` ?
Out: inactive
